I'd be grateful if you could share measured GI50 for these entries.
System: PC-3
Assay Method Text: NCI tumour cell line growth inhibition, 48 h
The source made the active and inactive calls. Rule as the data show it: active = GI50 up to about 1.1 µM and inactive = higher.

Sample answers from the record:
Compound	Measured On	Measured Value
Cc1ccc(S(=O)(=O)c2ccsc2NC(=O)c2ccccc2)cc1	PC-3	> 81.5 µM (inactive)
CC1(C#N)CC(C)(C)C(/C=C2/CC(C)(C)C(/C=C3/OC(=N)CC3(C)C)=N2)=N1 (stereo not given)	PC-3	30.6 µM (inactive)
CC(=O)CC(O)(C(F)(F)Cl)C(F)(F)Cl	PC-3	> 10 µM (inactive)
COc1cc2c(cc1OC)-c1cc3ccccc3c[n+]1CC2	PC-3	> 100 µM (inactive)
CC1(C)COP(=S)(c2ccccn2)O[C@@H]1c1ccccc1 (stereo not given in full)	PC-3	88.7 µM (inactive)

Report GI50 for each item below.
1. Nc1ccc(Sc2nnc(N)s2)cc1
2. CCCCCCCCCCCCCCCCP(=O)(O)OP(=O)(O)OCC1OC(n2cnc3c(N)ncnc32)C(O)C1O (stereo not given)
3. O=C1Nc2ccccc2/C1=N/Nc1c(F)c(F)c(F)c(F)c1F
4. CN(CCCNc1ccc2ncn3c4ccccc4c(=O)c1c23)CCCN1C(=O)c2cccc3cc([N+](=O)[O-])cc(c23)C1=O
5. O=C(O)CCC[C@]1(O)O[C@@]2(CCCC2=O)[C@]2(O)CCC[C@@]21O

1. > 100 µM (inactive)
2. 20.7 µM (inactive)
3. > 100 µM (inactive)
4. 1.14 µM (inactive)
5. > 100 µM (inactive)
